Record form. Attribute: melting point. Fill in for each entry.

Look up and state reported melting point for COc1ccc(C(C)(C)CCC(=O)O)cc1NC(=O)C[C@H]1O[C@H](c2cccc(OC)c2OC)c2cc(Cl)ccc2N(CC(C)(C)CO)C1=O [Example 138]
173 to 174 °C

Look up and state reported melting point for COc1cccc([C@H]2O[C@H](CC(=O)NCCc3oc(C(=O)O)cc3C(=O)O)C(=O)N(CC(C)(C)CO)c3ccc(Cl)cc32)c1OC [Example 28]
155 to 157 °C

Look up and state reported melting point for COc1cccc([C@H]2O[C@H](CC(=O)Nc3ccc(OC(F)(F)C(=O)O)cc3)C(=O)N(CC(C)(C)CO)c3ccc(Cl)cc32)c1OC [Example 132]
149 to 150 °C

Look up and state reported melting point for CCOc1ccc(CCC(=O)O)cc1NC(=O)C[C@H]1O[C@H](c2cccc(OC)c2OC)c2cc(Cl)ccc2N(CC(C)(C)COC(C)=O)C1=O [Example 50]
175 to 176 °C

Look up and state reported melting point for COc1cccc([C@H]2O[C@H](CC(=O)Nc3ncc(CC(=O)O)s3)C(=O)N(CC(C)(C)CO)c3ccc(Cl)cc32)c1OC [Example 143]
239 to 241 °C

Look up and state reported melting point for COc1cccc([C@H]2O[C@H](CC(=O)Nc3cccc4c(C(=O)O)cccc34)C(=O)N(CC(C)(C)CO)c3ccc(Cl)cc32)c1OC [Example 129]
171 to 174 °C

* * *

assayReadout: melting point

Look up and state reported melting point for COc1cccc([C@H]2O[C@H](CC(=O)Nc3ccc4oc(C(=O)O)c(OC(C)C)c4c3)C(=O)N(CC(C)(C)CO)c3ccc(Cl)cc32)c1OC
174.2 to 174.9 °C

Look up and state reported melting point for COc1cccc([C@H]2O[C@H](CC(=O)Nc3cc(CCC(=O)O)ccc3OCCCc3ccccc3)C(=O)N(CC(C)(C)CO)c3ccc(Cl)cc32)c1OC
162 to 165 °C

Look up and state reported melting point for COc1ccc(C(C)(C)C(=O)O)cc1NC(=O)C[C@H]1O[C@H](c2cccc(OC)c2OC)c2cc(Cl)ccc2N(CC(C)(C)CO)C1=O
225 to 226 °C (dec.)

Look up and state reported melting point for COc1cccc([C@H]2O[C@H](CC(=O)Nc3cc(CCCCC(=O)O)ccc3F)C(=O)N(CC(C)(C)CO)c3ccc(Cl)cc32)c1OC
115 to 118 °C

Look up and state reported melting point for COc1cccc([C@H]2O[C@H](CC(=O)Nc3cc(C(=O)O)ccc3F)C(=O)N(CC(C)(C)CO)c3ccc(Cl)cc32)c1OC
163 to 166 °C

Look up and state reported melting point for COc1cccc([C@@H]2O[C@@H](CC(=O)NCCc3occc3C(=O)O)C(=O)N(CC(C)(C)CO)c3ccc(Cl)cc32)c1OC
123 to 126 °C

Look up and state reported melting point for COc1cccc([C@H]2O[C@H](CC(=O)Nc3ccc(OCCCc4ccccc4)c(CCC(=O)O)c3)C(=O)N(CC(C)(C)CO)c3ccc(Cl)cc32)c1OC
147 to 149 °C

Look up and state reported melting point for COc1cccc([C@H]2O[C@H](CC(=O)Nc3cc(CCC(=O)O)ccc3OC(C)C)C(=O)N(CC(C)(C)CO)c3ccc(Cl)cc32)c1OC
133 to 136 °C

* * *

Record form. Attribute: melting point. Fill in for each entry.

Look up and state reported melting point for COc1cccc([C@H]2O[C@H](CC(=O)Nc3cccc(OC(F)(F)C(=O)O)c3)C(=O)N(CC(C)(C)CO)c3ccc(Cl)cc32)c1OC [Example 133]
119 to 121 °C

Look up and state reported melting point for COc1cccc([C@H]2O[C@H](CC(=O)NCCc3ccc(OC(C)(C)C(=O)O)cc3)C(=O)N(CC(C)(C)CO)c3ccc(Cl)cc32)c1OC [Example 77]
209 to 211 °C

Look up and state reported melting point for COc1ccc(CCCC(=O)O)cc1NC(=O)C[C@H]1O[C@H](c2cccc(OC)c2OC)c2cc(Cl)ccc2N(CC(C)(C)CO)C1=O [Example 110]
119 to 121 °C

Look up and state reported melting point for COc1cccc([C@H]2O[C@H](CC(=O)Nc3nc(C)c(C(=O)O)s3)C(=O)N(CC(C)(C)CO)c3ccc(Cl)cc32)c1OC [Example 145]
251 to 252 °C

Look up and state reported melting point for COc1cccc([C@H]2O[C@H](CC(=O)Nc3c(C)c(C)c4oc(C(=O)O)cc4c3C)C(=O)N(CC(C)(C)CO)c3ccc(Cl)cc32)c1OC [Example 164]
246 to 248 °C

Look up and state reported melting point for COc1cccc([C@H]2O[C@H](CC(=O)Nc3cccc(C(=O)O)n3)C(=O)N(CC(C)(C)CO)c3ccc(Cl)cc32)c1OC [Example 140]
265 to 270 °C (dec.)

Look up and state reported melting point for COc1cccc([C@H]2O[C@H](CC(=O)Nc3cc(Cl)cc4cc(C(=O)O)oc34)C(=O)N(CC(C)(C)CO)c3ccc(Cl)cc32)c1OC [Example 165]
179.2 to 180.2 °C

Look up and state reported melting point for COc1cccc([C@H]2O[C@H](CC(=O)Nc3cccc(C(=O)O)c3C)C(=O)N(CC(C)(C)CO)c3ccc(Cl)cc32)c1OC [Example 43]
165 to 168 °C

Look up and state reported melting point for COc1cccc([C@H]2O[C@H](CC(=O)NCc3ccc(CC(=O)O)cc3)C(=O)N(CC(C)(C)CO)c3ccc(Cl)cc32)c1OC [Example 61]
129 to 132 °C

Look up and state reported melting point for COc1cccc([C@H]2O[C@H](CC(=O)Nc3ccc4oc(C(=O)O)c(C)c4c3)C(=O)N(CC(C)(C)CO)c3ccc(Cl)cc32)c1OC [Example 160]
175 to 176.5 °C

Look up and state reported melting point for COc1cccc([C@H]2O[C@H](CC(=O)Nc3cc(OC)c4oc(C(=O)O)cc4c3)C(=O)N(CC(C)(C)CO)c3ccc(Cl)cc32)c1OC [Example 149]
175.4 to 175.5 °C

Look up and state reported melting point for COc1cccc([C@H]2O[C@H](CC(=O)Nc3ncc(C(=O)O)s3)C(=O)N(CC(C)(C)CO)c3ccc(Cl)cc32)c1OC [Example 141]
241 to 242.2 °C

* * *

# experimentalSystem: squalene synthase (Homo sapiens)
# Construct: endogenous in cells; sediment of the 105000 x g centrifugation (microsomal fraction)
# Sequence (P37268 whole entry): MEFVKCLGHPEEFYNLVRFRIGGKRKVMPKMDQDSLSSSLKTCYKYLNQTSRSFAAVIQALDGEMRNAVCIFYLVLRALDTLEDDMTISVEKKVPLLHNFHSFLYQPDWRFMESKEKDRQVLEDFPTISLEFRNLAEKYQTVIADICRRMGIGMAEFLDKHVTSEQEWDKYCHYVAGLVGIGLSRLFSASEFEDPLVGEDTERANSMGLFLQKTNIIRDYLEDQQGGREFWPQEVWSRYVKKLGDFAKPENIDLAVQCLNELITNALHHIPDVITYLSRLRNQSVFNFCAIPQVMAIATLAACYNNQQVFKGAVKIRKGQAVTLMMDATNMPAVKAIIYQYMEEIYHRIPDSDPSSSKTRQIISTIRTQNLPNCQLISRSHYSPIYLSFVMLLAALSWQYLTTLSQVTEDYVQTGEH
# procedureText: Squalene synthase inhibiting activity (Test Example 1)
# assayContext: enzyme solution from human hepatic cancer cell HepG2; 5 μM [1-3H] farnesyl pyrophosphate, 37° C., 45 minutes; read-out: Inhibiting activity (IC50, 10^−9M)
assayReadout: pIC50
pIC50 here: minus log base 10 of the concentration, concentration in moles per litre.

Look up and state reported pIC50 for COc1cccc([C@H]2O[C@H](CC(=O)NC[C@H]3CC[C@H](C(=O)O)CC3)C(=O)N(CC(C)(C)CO)c3ccc(Cl)cc32)c1OC [Example 23]
7.00

Look up and state reported pIC50 for COc1cccc([C@H]2O[C@H](CC(=O)NCc3cccc(CCC(=O)O)c3)C(=O)N(CC(C)(C)CO)c3ccc(Cl)cc32)c1OC [Example 64]
7.43

Look up and state reported pIC50 for COc1cccc([C@H]2O[C@H](CC(=O)Nc3cc(CCC(=O)O)ccc3F)C(=O)N(CC(C)(C)CO)c3ccc(Cl)cc32)c1OC [Example 53]
7.40

Look up and state reported pIC50 for COc1cccc([C@H]2O[C@H](CC(=O)Nc3cccc(CCC(=O)O)c3)C(=O)N(CC(C)(C)CO)c3ccc(Cl)cc32)c1OC [Example 35]
6.92

Look up and state reported pIC50 for COc1cccc([C@H]2O[C@H](CC(=O)NCc3ccc(CC(=O)O)cc3)C(=O)N(CC(C)(C)CO)c3ccc(Cl)cc32)c1OC [Example 61]
7.68

Look up and state reported pIC50 for CCCS(=O)(=O)NC(=O)C[C@H]1O[C@H](c2cccc(OC)c2OC)c2cc(Cl)ccc2N(CC(C)(C)CO)C1=O [Example 2]
7.27

Look up and state reported pIC50 for COc1ccc(CCC(=O)O)cc1NC(=O)C[C@H]1O[C@H](c2cccc(OC)c2OC)c2cc(Cl)ccc2N(CC(C)(C)CO)C1=O [Example 37]
7.03

Look up and state reported pIC50 for COc1cccc([C@H]2O[C@H](CC(=O)NCCc3occc3C(=O)O)C(=O)N(CC(C)(C)CO)c3ccc(Cl)cc32)c1OC [Example 26]
7.60

Look up and state reported pIC50 for COc1cccc([C@H]2O[C@H](CC(=O)NCc3ccoc3C(=O)O)C(=O)N(CC(C)(C)CO)c3ccc(Cl)cc32)c1OC [Example 30]
8.04

Look up and state reported pIC50 for COc1cccc([C@H]2O[C@H](CC(=O)Nc3cccc(CCC(=O)O)c3)C(=O)N(CC(C)(C)C)c3ccc(Cl)cc32)c1OC [Example 60]
7.30

Look up and state reported pIC50 for COc1cccc([C@H]2O[C@H](CC(=O)Nc3cc(CCC(=O)O)ccc3C)C(=O)N(CC(C)(C)CO)c3ccc(Cl)cc32)c1OC [Example 55]
7.80

Look up and state reported pIC50 for COc1cccc([C@H]2O[C@H](CC(=O)N[C@H](C)C(=O)O)C(=O)N(CC(C)(C)C)c3ccc(Cl)cc32)c1OC [Example 18]
8.00

Look up and state reported pIC50 for COc1cccc([C@H]2O[C@H](CC(=O)NC[C@H]3CC[C@H](C(=O)O)CC3)C(=O)N(CC(C)(C)COC(C)=O)c3ccc(Cl)cc32)c1OC [Example 24]
6.77
